- assayed_target: M1 muscarinic receptor (Homo sapiens)
- Construct: expressed in transfected cells; host or cells: CHO (M1-CHO)
- Sequence (P11229 whole entry): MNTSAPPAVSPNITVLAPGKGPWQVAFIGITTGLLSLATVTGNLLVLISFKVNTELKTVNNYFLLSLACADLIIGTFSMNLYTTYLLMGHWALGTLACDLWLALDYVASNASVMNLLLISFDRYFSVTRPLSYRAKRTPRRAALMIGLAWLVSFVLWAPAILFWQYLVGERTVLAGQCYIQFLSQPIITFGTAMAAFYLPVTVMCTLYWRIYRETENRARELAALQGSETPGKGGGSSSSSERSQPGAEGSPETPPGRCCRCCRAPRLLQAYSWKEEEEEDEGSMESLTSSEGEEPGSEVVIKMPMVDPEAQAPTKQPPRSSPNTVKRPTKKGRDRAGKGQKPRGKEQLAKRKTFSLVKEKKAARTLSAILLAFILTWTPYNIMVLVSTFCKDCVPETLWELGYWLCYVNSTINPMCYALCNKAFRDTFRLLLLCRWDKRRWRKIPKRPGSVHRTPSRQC
- test_details: Functional mobilization of intracellular calcium (FLIPR) in M1-CHO cells
- Type: cell-based
- test_parameters: Table 4; 100% efficacy is the maximum response obtained with the Carbachol control
measure_name: Emax

compound | measure_name | recorded_result
CC(=O)N[C@H]1CCC2(CCN(CCC3CCCN(C(=O)OC(C)(C)C)C3)CC2)c2ccccc21 (stereo partly shown) [compound 819] | Emax | 25 to 100%
CC(=O)N[C@H]1CC2(CCN(C3CCN(C)CC3C)CC2)c2ccccc21 (stereo partly shown) [compound 436] | Emax | < 25%
CC(=O)NC1CCC2(CCN(CCC3CCCN(C(=O)OC(C)C)C3)CC2)c2ccccc21 (stereo not shown) [compound 731] | Emax | < 25%
CCCOC(=O)N1CC[C@H](CN2CCC3(CC2)CN(C(=O)N(C)C)c2ccc(F)cc23)C1 [compound 510] | Emax | 25 to 100%
O=C(O)C1CC2(CCN(C3CCCCC3)CC2)c2ccccc21 (stereo not shown) [compound 612] | Emax | < 25%
CCOC(=O)N1CCC(N2CCC3(CC2)CN(C(=O)CCC(C)=O)c2ccc(F)cc23)CC1 [compound 851] | Emax | 25 to 100%
CCOC(=O)N1CCC(N2CCC3(CC2)CN(C(C)=O)c2ccc(-c4ccc(F)cc4)cc23)CC1 [compound 950] | Emax | 25 to 100%
CCOC(=O)N1C2CCC1CC(N1CCC3(CC[C@H](NS(C)(=O)=O)c4ccccc43)CC1)C2 (stereo partly shown) [compound 809] | Emax | 25 to 100%
CCOC(=O)N1CCC(N2CCC3(CC2)CN(C(C)=O)c2c(-c4ccc(C)cc4)cccc23)CC1 [compound 768] | Emax | 25 to 100%
CC(=O)N[C@H]1CCC2(CCN(CCCC3CCCCC3)CC2)c2ccccc21 [compound 452] | Emax | 25 to 100%
CCOC(=O)N1CCC(CN2CCC3(CC2)CN(C(C)=O)c2ccc(C(F)(F)F)cc23)CC1 [compound 994] | Emax | 25 to 100%
CC(=O)N1CC2(CCN(C3CCN(C(=O)OCC(C)(C)C)CC3)CC2)c2ccccc21 [compound 496] | Emax | < 25%
CCOC(=O)N1C2CCC1CC(N1CCCC3(CC1)CN(C(C)=O)c1ccc(F)cc13)C2 (stereo not shown) [compound 746] | Emax | 25 to 100%
CC(=O)N[C@H]1CC2(CCN(CC(=O)N3CCCCC3)CC2)c2ccccc21 [compound 792] | Emax | 25 to 100%
CC(=O)N[C@H]1CC2(CCN(CC3CCN(C(=O)OC4CCC4)CC3)CC2)c2ccccc21 [compound 818] | Emax | < 25%
COCCOC(=O)N1CCC(N2CCC3(CC2)CN(C(C)=O)c2ccccc23)CC1 [compound 539] | Emax | 25 to 100%

* * *

Listing: Emax of selected compounds
- assayed_target: M4 muscarinic receptor (Homo sapiens)
- Construct: expressed in transfected cells; host or cells: CHO (M4-CHO)
- Sequence (P08173 1-479): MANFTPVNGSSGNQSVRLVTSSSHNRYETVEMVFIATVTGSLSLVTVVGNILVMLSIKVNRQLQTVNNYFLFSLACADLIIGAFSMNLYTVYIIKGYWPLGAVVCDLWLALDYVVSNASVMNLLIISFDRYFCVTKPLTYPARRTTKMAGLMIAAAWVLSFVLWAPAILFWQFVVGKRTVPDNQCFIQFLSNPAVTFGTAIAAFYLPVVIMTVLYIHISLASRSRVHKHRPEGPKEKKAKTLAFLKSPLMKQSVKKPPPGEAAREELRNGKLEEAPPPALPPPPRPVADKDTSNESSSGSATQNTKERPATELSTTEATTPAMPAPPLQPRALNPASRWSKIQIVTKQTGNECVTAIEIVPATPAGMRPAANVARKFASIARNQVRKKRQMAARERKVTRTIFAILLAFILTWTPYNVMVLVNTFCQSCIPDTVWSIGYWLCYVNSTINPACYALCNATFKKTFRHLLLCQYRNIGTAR
- test_details: Functional mobilization of intracellular calcium (FLIPR) in M4-CHO cells
- Format: cell-based
- test_parameters: Table 4; 100% efficacy is the maximum response obtained with the Carbachol control

compound | Emax
CN(C)C(=O)N1CC2(CCN(C3CCN(C(=O)CC(F)(F)F)CC3)CC2)c2cc(F)ccc21 [compound 592] | < 25%
CCOC(=O)N1CCCC(N2CCC3(CC2)CN(C(=O)N(C)C)c2ccc(F)cc23)CC1 (centres unmarked) [compound 698] | > 100%
CN(C)C(=O)N1CC2(CCN(C3CCN(C(=O)CCC#N)CC3)CC2)c2cc(F)ccc21 [compound 492] | < 25%
CCc1cncc(N2CCC(N3CCC4(CC3)CN(C(C)=O)c3ccccc34)CC2)n1 [compound 822] | 25 to 100%
CCOC(=O)N1CCC(N2CCC3(CC2)CN(c2ccc(C)nn2)c2ccc(F)cc23)CC1 [compound 942] | 25 to 100%
Cc1cnc(C)c(N2CCC(N3CCC4(CC3)CN(C(=O)N(C)C)c3ccc(F)cc34)CC2)n1 [compound 659] | 25 to 100%
COCCOC(=O)N1C2CCC1CC(N1CCC3(CC1)CN(C(C)=O)c1ccccc13)C2 (centres unmarked) [compound 607] | 25 to 100%
COC(=O)N1CC[C@H](CN2CCC3(CC2)CN(C(C)=O)c2ccccc23)C1 [compound 680] | 25 to 100%
